Tested on: Human immunodeficiency virus 1
METHOD: Viral spread inhibitory concentration against HIV-1 strain K-60C in MT-4 human T-lymphoid cells
Format: functional
TEST_PARAMETERS: Human immunodeficiency virus 1, T-lymphoid; read-out: CIC95

- COMPOUND_SMILES: "O=C(N[C@H]1c2ccccc2OC[C@H]1O)[C@H](Cc1cccnc1)C[C@H](O)CN1CCN(Cc2ccc(-c3ccccc3)o2)C[C@H]1C(=O)NCC(F)(F)F"
  IC95: "≤ 8 nM"
- COMPOUND_SMILES: "O=C(N[C@H]1c2ccccc2OC[C@H]1O)[C@H](Cc1cccnc1)C[C@H](O)CN1CCN(Cc2ccn(-c3cccc(Cl)c3)c2)C[C@H]1C(=O)NCC(F)(F)F"
  IC95: "≤ 8 nM"
- COMPOUND_SMILES: "CC(C)(C)NC(=O)[C@@H]1CN(Cc2cccnc2)CCN1C[C@@H](O)C[C@@H](Cc1ccccc1)C(=O)N[C@H]1c2ccccc2C[C@H]1O.O"
  IC95: "> 1000 nM"
